All figures here come from patent US12336981B2.

Molecular target: NAMPT (Homo sapiens, UniProt P43490)
Construct: His tag; host or cells: E. coli
Sequence (P43490 whole entry): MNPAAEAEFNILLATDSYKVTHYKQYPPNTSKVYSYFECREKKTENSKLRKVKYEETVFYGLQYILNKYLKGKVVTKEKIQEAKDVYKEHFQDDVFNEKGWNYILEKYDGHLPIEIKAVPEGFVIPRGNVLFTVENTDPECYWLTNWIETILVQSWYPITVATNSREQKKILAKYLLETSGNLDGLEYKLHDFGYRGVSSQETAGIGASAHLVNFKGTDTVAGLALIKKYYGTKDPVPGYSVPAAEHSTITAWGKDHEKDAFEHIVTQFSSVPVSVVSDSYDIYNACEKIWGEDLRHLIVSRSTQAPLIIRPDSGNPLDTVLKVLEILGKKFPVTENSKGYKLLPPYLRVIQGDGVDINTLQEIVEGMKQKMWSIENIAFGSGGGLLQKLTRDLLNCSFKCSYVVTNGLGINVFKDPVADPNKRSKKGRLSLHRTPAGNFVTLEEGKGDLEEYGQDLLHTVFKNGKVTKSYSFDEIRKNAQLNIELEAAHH
Assay: Biochemical inhibition assay: NAMPT enzymatic reaction, NMN quantified by mass spectrometry
Settings: NAMPT enzymatic assay; read-out: Biochem IC50
Excerpt: Biochemical Inhibition Assay NAMPT Protein Purification Recombinant His-tagged NAMPT was produced in E. coli cells, purified over a Ni column, and further purified over a size-exclusion column by XTAL Biostructures. The NAMPT Enzymatic Reaction […] A mass spectrometry-based assay was used to measure the NAMPT reaction product (NMN) and the internal control (L-Cystathionine). NMN and L-Cystathionine were detected using the services of Biocius Lifesciences with the RapidFire system. […]
Binarize IC50 at 9 nM; below is true (1), at or above is false (0).

Solved cases below.
>  <smiles-string>
O=C(NCc1ccc(S(=O)(=O)c2cccc3ccsc23)cc1)c1cc2ccncc2o1

>  <class-label>
true (1)

$$$$
>  <smiles-string>
CC(C)COc1ccc(S(=O)(=O)c2ccc(CNC(=O)c3cnc4nccn4c3)cc2)cc1

>  <class-label>
true (1)

$$$$
>  <smiles-string>
CCN(CC)C(=O)c1cc(Cl)cc(S(=O)(=O)c2ccc(CNC(=O)c3cc4ccncc4s3)cc2)c1

>  <class-label>
true (1)

$$$$
>  <smiles-string>
O=C(NCc1ccc(S(=O)(=O)c2cncc(F)c2)cc1)c1cnc2nccn2c1

>  <class-label>
true (1)

$$$$

Pending molecule:
## Input Does the reported IC50 of Cc1cn(C)c(S(=O)(=O)c2ccc(CNC(=O)c3cc4ccncc4o3)cc2)n1 stay below 9 nM?
## Output false (0)

* * *

target: NAMPT (Homo sapiens); construct: His tag; host or cells: E. coli; experiment: Biochemical inhibition assay: NAMPT enzymatic reaction, NMN quantified by mass spectrometry; conditions: NAMPT enzymatic reaction; read-out: Biochem IC50
Note to self: use 1 only for IC50 readings below 9 nM; a reading exactly at 9 nM still gets -1.

# count of solved cases: 3
>  <smiles-string>
O=C(NCc1ccc(S(=O)(=O)CCc2ccccc2)cc1)C1=Nc2ccncc2C1

>  <class-label>
-1

$$$$
>  <smiles-string>
COc1cccc(S(=O)(=O)c2ccc(CNC(=O)c3cc4ccncc4o3)cc2)c1

>  <class-label>
1

$$$$
>  <smiles-string>
O=C(NCc1ccc(S(=O)(=O)c2cccc(-c3ccccc3)c2)cc1)c1cnc2nccn2c1

>  <class-label>
1

$$$$

## Input I wonder whether O=C(NCc1ccc(S(=O)(=O)c2ccccc2)cc1)c1noc(-c2cccnc2)n1 has IC50 below 9 nM. Can you tell?
## Output -1

## Input Record COc1cc(F)c(F)cc1S(=O)(=O)c1ccc(CNC(=O)c2cc3cnccc3[nH]2)cc1 : is its IC50 strictly below 9 nM?
## Output -1

## Input Hi there! Is IC50 for COc1ccc(OC)c(S(=O)(=O)c2ccc(CNC(=O)c3cnc4[nH]ncc4c3)cc2)c1 below 9 nM, do you know?
## Output -1

## Input Is it true that IC50 reported for Cc1ccc(F)c(S(=O)(=O)c2ccc(CNC(=O)c3cc4cnccc4[nH]3)cc2)c1 is less than 9 nM?
## Output -1

## Input Is the reported IC50 for Cc1ccc(Cl)c(S(=O)(=O)c2ccc(CNC(=O)c3cc4ccncc4o3)cc2)c1 strictly below 9 nM?
## Output -1

## Input Hello, I'm reviewing records and need to know if IC50 of COc1cc(C)cc(S(=O)(=O)c2ccc(CNC(=O)c3ccc4nccn4c3)cc2)c1 is below 9 nM. Could you check?
## Output 1

## Input Answer whether the compound O=C(NCc1ccc(S(=O)(=O)Nc2ccccc2CO)cc1)c1cc2cnccc2[nH]1 has IC50 strictly less than 9 nM
## Output -1

## Input Regarding O=C(NCc1ccc(S(=O)(=O)c2ccccc2OC(F)(F)F)cc1)c1cc2cnccc2[nH]1 , kindly confirm whether its IC50 is beneath 9 nM.
## Output -1

## Input Please let me know if O=C(NCc1ccc(S(=O)(=O)N2CCCCC2)cc1)c1cc2ccncc2[nH]1 shows IC50 below 9 nM.
## Output 1

## Input I wonder whether CCOc1cc(Cl)ccc1S(=O)(=O)c1ccc(CNC(=O)c2cnc3nccn3c2)cc1 has IC50 below 9 nM. Can you tell?
## Output 1

## Input Strictly below 9 nM in IC50? CCc1ccc(S(=O)(=O)c2ccc(CNC(=O)c3cc4ccncc4o3)cc2)cc1
## Output 1

## Input Dear reviewer, please state whether CCOc1cc(S(=O)(=O)c2ccc(CNC(=O)c3cnc4[nH]ncc4c3)cc2)ccc1F has IC50 strictly beneath 9 nM.
## Output -1

## Input Given Cc1cc(C)c(S(=O)(=O)c2ccc(CNC(=O)c3cnc4nccn4c3)cc2)c(C)c1 , is recorded IC50 strictly lower than 9 nM?
## Output -1

## Input Here's an entry: CCc1cccc(S(=O)(=O)c2ccc(CNC(=O)c3cnc4nccn4c3)cc2)c1 . Is its IC50 below 9 nM?
## Output 1

## Input Dear colleague, could you confirm whether IC50 of O=C(NCc1ccc(S(=O)(=O)c2c(Cl)cccc2Cl)cc1)c1cc2ccncc2o1 falls below 9 nM? Thanks.
## Output -1

## Input Dear reviewer, please state whether Cc1c(Cl)cccc1S(=O)(=O)c1ccc(CNC(=O)c2cnc3[nH]ncc3c2)cc1 has IC50 strictly beneath 9 nM.
## Output -1

## Input Find out if reported IC50 for CS(=O)(=O)c1cccc(S(=O)(=O)c2ccc(CNC(=O)c3cc4ccncc4s3)cc2)c1 is less than 9 nM
## Output 1

* * *

molecular target: NAMPT (Homo sapiens, UniProt P43490); construct: His tag; host or cells: E. coli; test: Biochemical inhibition assay: NAMPT enzymatic reaction, NMN quantified by mass spectrometry; settings: NAMPT enzymatic assay; read-out: Biochem IC50
Readings of log10 of IC50 for the listed molecules
The base-10 logarithm of IC50, taken with IC50 in nM, is what appears here.

// below: answered molecules
>  <smiles-string>
O=C(NCc1ccc(S(=O)(=O)c2cccc3c2Oc2ccccc2S3)cc1)c1cc2ccncc2o1

>  <system-under-test>
NAMPT (Homo sapiens, UniProt P43490)

>  <log10 of IC50>
0.75

$$$$
>  <smiles-string>
COc1cc(C(F)(F)F)ccc1S(=O)(=O)c1ccc(CNC(=O)c2cnc3[nH]ncc3c2)cc1

>  <system-under-test>
NAMPT (Homo sapiens, UniProt P43490)

>  <log10 of IC50>
2.08

$$$$
>  <smiles-string>
CCNC(=O)c1ccc(S(=O)(=O)c2ccc(CNC(=O)c3ccc4nccn4c3)cc2)cc1

>  <system-under-test>
NAMPT (Homo sapiens, UniProt P43490)

>  <log10 of IC50>
1.08

$$$$
>  <smiles-string>
O=C(NCc1ccc(S(=O)(=O)c2ccc(C(F)(F)F)cc2C(F)(F)F)cc1)c1cc2cnccc2[nH]1

>  <system-under-test>
NAMPT (Homo sapiens, UniProt P43490)

>  <log10 of IC50>
1.60

$$$$
>  <smiles-string>
CCOCc1ccc(S(=O)(=O)c2ccc(CNC(=O)c3cc4cnccc4[nH]3)cc2)cc1

>  <system-under-test>
NAMPT (Homo sapiens, UniProt P43490)

>  <log10 of IC50>
1.35

$$$$

Record O=C(NCc1ccc(S(=O)(=O)c2cnn(-c3cccc(Cl)c3)c2)cc1)c1ccc2nccn2c1 , field log10 of IC50: 1.15

Value of measured log10 of IC50 for the entry Cc1ccc(Cl)c(S(=O)(=O)c2ccc(CNC(=O)c3cc4ccncc4s3)cc2)c1F : 0.89

Looking up Cn1cc2cc(S(=O)(=O)c3ccc(CNC(=O)c4cc5ccncc5s4)cc3)ccc2n1 , I found its log10 of IC50 recorded as 0.74

* * *

Molecular target: NAMPT (Homo sapiens)
Construct: His tag; host or cells: E. coli
Assay: Biochemical inhibition assay: NAMPT enzymatic reaction, NMN quantified by mass spectrometry
Conditions: NAMPT enzymatic assay; read-out: Biochem IC50
Text: Biochemical Inhibition Assay NAMPT Protein Purification Recombinant His-tagged NAMPT was produced in E. coli cells, purified over a Ni column, and further purified over a size-exclusion column by XTAL Biostructures. The NAMPT Enzymatic Reaction […] A mass spectrometry-based assay was used to measure the NAMPT reaction product (NMN) and the internal control (L-Cystathionine). NMN and L-Cystathionine were detected using the services of Biocius Lifesciences with the RapidFire system. […]
quantity-name: pIC50
On this scale, pIC50 is minus log10 of a concentration expressed in M (mol/L).

>  <smiles-string>
O=C(NCc1ccc(S(=O)(=O)c2cc(F)cc(C(F)(F)F)c2)cc1)c1cc2cnccc2[nH]1

>  <system-under-test>
NAMPT (Homo sapiens)

>  <pIC50>
7.58

$$$$
>  <smiles-string>
CCN(CC)C(=O)c1ccc(F)c(S(=O)(=O)c2ccc(CNC(=O)c3cc4cnccc4[nH]3)cc2)c1

>  <system-under-test>
NAMPT (Homo sapiens)

>  <pIC50>
7.42

$$$$
>  <smiles-string>
Cn1ncc2ccc(S(=O)(=O)c3ccc(CNC(=O)c4cc5ccncc5s4)cc3)cc21

>  <system-under-test>
NAMPT (Homo sapiens)

>  <pIC50>
8.64

$$$$

Here is another compound to look at.
Kindly note the recorded pIC50 for Cc1nc(S(=O)(=O)c2ccc(CNC(=O)c3cc4ccncc4o3)cc2)cs1 , which is 7.44
